target-of-assay: Cytochrome P450 2C9 (Homo sapiens)
experimental-details: Cytochrome P450 Family 2 Subfamily C Member 9 (CYP2C9) small molecule antagonists: luciferase reporter qHTS assay (AID 1671198); further: nearly all actives have a fitted effect of over 50% in size
conditions: P450-Glo CYP2C9 enzyme assay, luciferin luminescence; series mostly up to 53 µM
Results filed as inconclusive are left out. Activity calls are given as the source filed them. The call rests on the fitted dose curve; in most records, active means well fitted inhibition curve with a large enough effect in the repeat runs; inconclusive means weak or mixed curves; inactive means no such curve, though single readings can be large or run the other way.
Respond with a class label; see active, inactive

> print(dat)
                            compound.smiles  group.label
1  CCCCCCCCCCCCCCCCOP(=O)([O-])OCC[N+](C)(C)C     inactive
2                                CCC/C=C/CO     inactive
3                             Cc1ccc(C=O)s1     inactive
4      CC(C)=CCC[C@](C)(O)[C@@H]1CC=C(C)CC1       active
5                          COC(=O)/C=C(/C)N     inactive

Req: Hey, what did the test say about `C1CSCCS1` ?
Resp: inactive

Req: Hey, what did the test say about `CC(C)c1ccccc1` ?
Resp: inactive

Req: Hey, what did the test say about `O=CCCc1ccccc1` ?
Resp: active

###

experimental-details: qHTS assay to test for compound auto fluorescence at 535 nm (green) in HEK293 cell free culture (AID 720682); further: on the % scale 0 is the no-effect control and ±100 the full control effect
conditions: cell-free medium, green autofluorescence 485/535 nm, stronger effect = higher value; series mostly up to 91.3 µM
Calls of active or inactive are those of the source. Calls come from the whole dose curve; as a rule, active = well fitted curve in the direction sought with a large enough effect in the repeat runs; inconclusive = weak or mixed curves; inactive = flat fitted curve, though single readings scatter.
assay-readout: activity change

For orientation, consider the following solved cases.
> print(dat)
                             compound    assay.readout    result
1  CCCC1CCC(=O)O1 (centres undefined)  activity change  inactive
2                              CC(C)S  activity change  inactive
3    CCc1nnc(NS(=O)(=O)c2ccc(N)cc2)s1  activity change  inactive
4        Cc1cccc(C)c1NC(=O)CN1CCCCCC1  activity change  inactive
5                       CC(C)c1ccccc1  activity change  inactive

Req: Answer with reported activity change of `CCCc1c2oc(C(=O)O)cc(=O)c2cc2c(=O)cc(C(=O)O)n(CC)c12`
Resp: inactive

Req: Answer with reported activity change of `CC(C)Nc1nc(N)nc(Cl)n1`
Resp: inactive

Req: Answer with reported activity change of NC(Cc1ccc(F)cc1)C(=O)O (centres undefined)
Resp: 0.0132% [at 3.72 µM] (inactive)

Req: Answer with reported activity change of `CC(C)NC[C@@H](O)COc1cccc2ccccc12`
Resp: inactive

Req: Answer with reported activity change of CC1CN(c2ccccc2)NC1=O (centres undefined)
Resp: inactive

Req: Answer with reported activity change of `CCOC(=O)[C@H](CCc1ccccc1)N[C@@H](C)C(=O)N1Cc2cc(OC)c(OC)cc2C[C@H]1C(=O)O`
Resp: inactive

###

experimental-details: A CellTox Green Cytotoxicity Assay to monitor cytotoxicity in HepG2 cells - 32 hour (AID 1224883); further: on the % scale 0 is the no-effect control and ±100 the full control effect; nearly all actives have a fitted effect of over 50% in size
conditions: CellTox Green fluorescence; series mostly up to 76.8 µM
Source text: National Center for Advancing Translational Sciences [NCATS] NIH Chemical Genomics Center [NCGC] U.S. Environmental Protection Agency [EPA] National Institutes of Environmental Health Sciences [NIEHS] National Toxicology Program [NTP] Cell-based models are critical for drug discovery. […] Viable cells produce no appreciable increases in fluorescence. Therefore, the fluorescence signal produced by the binding interaction with dead cell DNA is proportional to cytotoxicity. […]
Records with an inconclusive call do not appear. Activity calls are given as the source filed them. Calls follow the shape of the dose curve; as a rule, active = well fitted activation curve with a large enough effect in the repeat runs; inconclusive = weak or mixed curves; inactive = flat fitted curve, though single readings scatter.
assay-readout: cytotoxicity increase

For orientation, consider the following solved cases.
> print(dat)
                                   compound    result
1  CC1(O)CSC(C)(O)CS1 (configuration not stated)  inactive
2  CC(=O)O[C@H]1CC[C@@]2(C)C(=CC[C@@H]3[C@@H]2CC[C@]2(C)C(C(C)=O)=CC[C@@H]32)C1  inactive
3                                CCC/C=C/CO  inactive
4           c1ccc(CN(CC2=NCCN2)c2ccccc2)cc1  inactive
5                    CC1=CC(=O)CC(C)(C)C1=O  inactive

Req: Answer with reported cytotoxicity increase of CC1CN(c2ccccc2)NC1=O (configuration not stated)
Resp: inactive

Req: Answer with reported cytotoxicity increase of `CCc1nnc(NS(=O)(=O)c2ccc(N)cc2)s1`
Resp: inactive
